Values were extracted from ChEMBL document CHEMBL1144887.

- Test system: Rattus norvegicus
- Procedure Details: Effective dose required for analgesic activity by trypsin-induced hyperalgesia assay at 20 mg/kg by oral administration in rats
- Assay type: functional
Doc: threshold 9 mg/kg (exclusive). Items with ED50 beneath it return t; others return f.

Query block: Does the reported ED50 of the following molecule sit strictly below 9 mg/kg? NC(=O)/C=C1\CCc2c(F)ccc(F)c21
Result block: t

Query block: Quick check: ED50 of CN(C)C(=O)/C=C1\CCc2ccc(F)cc21 under 9 mg/kg?
Result block: t

Query block: Identify whether the molecule NC(=O)/C=C1\CCc2c(F)cccc21 records ED50 below 9 mg/kg.
Result block: f

Query block: Check if ED50 falls below 9 mg/kg for NC(=O)/C=C1\CCc2ccc(F)cc21 .
Result block: f

Query block: Just wondering, is ED50 of NC(=O)/C=C1\CCc2c(F)cc(F)cc21 below 9 mg/kg?
Result block: t

---

- Tested on: Mus musculus
- Procedure Details: Effective dose required for muscle relaxation by oral administration in mouse using Straub-tail (ST) assay.
- Assay type: functional
Attribute Measured: ED50 (mg/kg)
Give just the number in mg/kg; leave the unit off.

In the examples that follow, each entry is paired with its recorded ED50.
Compound: O=C(/C=C/c1cccc(F)c1)NC1CC1 [CINFLUMIDE]
ED50 / mg/kg: 156

Compound: O=C(/C=C1\CCc2ccccc21)NC1CC1
ED50 / mg/kg: 150

Compound: O=C(/C=C1\CCc2c(F)ccc(F)c21)NC1CC1
ED50 / mg/kg: 59

Compound: CCN(C)C(=O)/C=C1\CCc2c(F)cc(F)cc21
ED50 / mg/kg: 56

Compound: O=C(/C=C1\CCc2ccc(F)cc21)NC1CC1
ED50 / mg/kg: 66

So, NC(=O)/C=C1\CCc2ccc(Cl)cc21 ? Its ED50 was 98

What the record says about NC(=O)/C=C1\CCc2cc(F)ccc21 : ED50 is 56

Record O=C(/C=C1\CCc2c(F)cc(F)cc21)NC1CC1 , field ED50: 62

Lookup result for O=C(/C=C1\CCc2c(Cl)cccc21)NC1CC1 ; measured ED50: 58

ED50 reading for O=C(/C=C1\CCc2c1ccc(F)c2F)NC1CC1 : 62

Recorded result, CNC(=O)/C=C1\CCc2cc(F)c(F)cc21 , ED50: 96

---

In this section we review reported inhibition in vivo at 20 mg/kg values for a set of compounds.
- Test system: Rattus norvegicus
- Procedure Details: Percent inhibition for analgesic activity by trypsin-induced hyperalgesia assay at 20 mg/kg by oral administration in rats.
- Type: functional
// return numeric value only (unit: %, not printed)

Mol: CCNC(=O)/C=C1\CCc2c(F)cc(F)cc21
Val: 63
//
Mol: N#Cc1ccc2c(c1)/C(=C/C(N)=O)CC2
Val: 21
//
Mol: CNC(=O)/C=C1\CCc2cc(Cl)ccc21
Val: 25
//
Mol: CNC(=O)/C=C1\CCc2ccc(Cl)cc21
Val: 17
//
Mol: NC(=O)/C=C1\CCc2c(F)ccc(F)c21
Val: 83

Lab note: CCNC(=O)/C=C1\CCc2ccc(F)cc21 gave inhibition in vivo at 20 mg/kg of 40

The reported value for O=C(/C=C1\CCc2cc(F)cc(F)c21)NC1CC1 in terms of inhibition in vivo at 20 mg/kg is 13
